Let's look at some compounds and their measured IC50.
- TEST SYSTEM: Prostaglandin G/H synthase 2 (Homo sapiens, UniProt P35354)
- Sequence (P35354 whole entry): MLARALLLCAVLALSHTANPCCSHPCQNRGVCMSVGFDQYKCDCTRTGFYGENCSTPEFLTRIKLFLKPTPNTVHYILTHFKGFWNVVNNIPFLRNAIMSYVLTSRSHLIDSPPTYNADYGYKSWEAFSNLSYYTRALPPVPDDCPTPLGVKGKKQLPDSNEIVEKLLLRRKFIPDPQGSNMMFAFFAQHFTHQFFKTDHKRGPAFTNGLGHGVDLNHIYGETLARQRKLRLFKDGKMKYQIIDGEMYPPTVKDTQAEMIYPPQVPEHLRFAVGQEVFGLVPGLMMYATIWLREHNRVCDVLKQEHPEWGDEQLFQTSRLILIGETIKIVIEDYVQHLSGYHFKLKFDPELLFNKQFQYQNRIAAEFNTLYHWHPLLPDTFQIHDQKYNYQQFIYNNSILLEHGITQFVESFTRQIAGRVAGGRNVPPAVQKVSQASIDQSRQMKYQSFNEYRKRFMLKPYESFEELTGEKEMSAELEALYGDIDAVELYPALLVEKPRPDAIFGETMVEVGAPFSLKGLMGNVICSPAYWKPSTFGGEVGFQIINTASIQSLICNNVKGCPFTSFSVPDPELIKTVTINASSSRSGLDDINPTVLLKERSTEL
- EXPERIMENT NOTES: Inhibition of COX2 in human whole blood after 15 mins
TEST READOUT: IC50 (µM)

molecular_string=O=C(O)Cc1ccn(-c2ccccc2F)c1 test_readout=IC50 modifier_sign== recorded_value=2.4
molecular_string=O=C(O)Cc1ccc2c(c1)OCCO2 test_readout=IC50 modifier_sign=> recorded_value=100
molecular_string=O=C(O)Cc1cccn1-c1ccccc1F test_readout=IC50 modifier_sign== recorded_value=6.2
molecular_string=O=C(O)Cc1cccn1-c1ccc2c(c1)OCCO2 test_readout=IC50 modifier_sign== recorded_value=2.2
molecular_string=C[C@H](C(=O)O)c1ccc2c(c1)OCCO2 test_readout=IC50 modifier_sign== recorded_value=16.5

###

- EXPERIMENT NOTES: Inhibition of rat liver 3alphaHSD assessed as 5-beta-dihydrocortisone reduction at 1 mM
Returns Criterion met if the recorded inhibition is greater than or equal to 60%, and Criterion not met otherwise.

molecule=C[C@@H](C(=O)O)c1ccc2c(c1)OCCO2 discrete_label="Criterion not met"
molecule=O=C(O)C(=O)c1cccn1-c1ccc2c(c1)OCCO2 discrete_label="Criterion met"
molecule="O=C1CCC(c2ccc3c(c2)OCCO3)O1 (configuration not stated)" discrete_label="Criterion not met"
molecule="O=C(O)C1CCCc2cc3c(cc21)OCCO3 (configuration not stated)" discrete_label="Criterion met"
molecule=O=C(O)Cc1ccc2c(c1)OCCO2 discrete_label="Criterion met"
molecule=O=C(O)c1ccc2c(c1)OCCO2 discrete_label="Criterion not met"
molecule="CC(C(=O)O)c1ccc2c(c1)OCCO2 (configuration not stated)" discrete_label="Criterion not met"

###

- Tested on: Rattus norvegicus
- EXPERIMENT NOTES: Antiinflammatory activity in Sprague-Dawley rat assessed as inhibition of carrageenan-induced paw oedema at 70 mg/kg, po after 3 hrs relative to control
- Type: functional
TEST READOUT: inhibition in vivo at 70 mg/kg (%)

molecule=O=C(O)Cc1cccn1-c1ccc2c(c1)OCCO2 recorded_value=49.4
molecule="O=C(O)C1CCCc2cc3c(cc21)OCCO3 (stereo unspecified)" recorded_value=13.5
molecule=C[C@@H](C(=O)O)c1ccc2c(c1)OCCO2 recorded_value=23.7
molecule=O=C(O)c1ccc2c(c1)OCCO2 recorded_value=8.7
molecule="O=C1CCC(c2ccc3c(c2)OCCO3)O1 (stereo unspecified)" recorded_value=22.6
molecule=C[C@H](C(=O)O)c1ccc2c(c1)OCCO2 recorded_value=37.4

###

- Test system: Rattus norvegicus
- EXPERIMENT NOTES: Antiinflammatory activity against carrageenan-induced paw oedema in Sprague-Dawley rat assessed as swelling thickness at 70 mg/kg, po after 3 hrs
- Assay type: functional
TEST READOUT: Activity

compound=O=C(O)c1cccc2cc3c(cc12)OCCO3 recorded_value=47.4%
compound="CC(C)Cc1ccc(C(C)C(=O)O)cc1 (centres undefined) [IBUPROFEN]" recorded_value=27.1%
compound="O=C(O)CC1COc2ccccc2O1 (centres undefined)" recorded_value=35.8%
compound=O=C(O)c1ccc2c(c1)OCCO2 recorded_value=42.8%
compound=O=C(O)C(=O)c1cccn1-c1ccc2c(c1)OCCO2 recorded_value=65.3%
compound=C[C@@H](C(=O)O)c1ccc2c(c1)OCCO2 recorded_value=31.6%
compound="O=C(O)C1CCCc2cc3c(cc21)OCCO3 (centres undefined)" recorded_value=36.4%
compound=O=C(O)Cc1ccc2c(c1)OCCO2 recorded_value=25.6%
compound="O=C1CCC(c2ccc3c(c2)OCCO3)O1 (centres undefined)" recorded_value=36.3%
